Target: human TLR8 (Homo sapiens)
Experiment: HEK293-Blue-hTLR-8 cells assay (SEAP reporter, R848 stimulation)
Conditions: HEK293-Blue-hTLR8 cells, R848 ligand, 20 hrs incubation
pIC50: −log10 of the molar value.
parameter measured: pIC50

>  <molecule>
C[C@@H]1CN(c2ccc(C#N)n3nccc23)C[C@H](CN2CCC(N3CCCCCC3)CC2)O1 [Example 4]

>  <quantitative result>
7.59

$$$$
>  <molecule>
C[C@@H]1CN(c2ccc(C#N)n3nccc23)C[C@H](CN2CC3CCC2CN3)O1 (stereo partly shown) [Example 30]

>  <quantitative result>
7.00

$$$$
>  <molecule>
C[C@@H]1CN(c2ccc(C#N)n3nccc23)C[C@H](CN2CCC3NCC3C2)O1 (stereo partly shown) [Example 70]

>  <quantitative result>
6.92

$$$$
>  <molecule>
CC1CNCCN1C[C@H]1CN(c2ccc(C#N)n3nccc23)C[C@@H](C)O1 (single isomer, unassigned) [Example 50B]

>  <quantitative result>
7.28

$$$$

* * *

Target: human TLR8 (Homo sapiens, UniProt Q9NR97)
Sequence (Q9NR97 27-1041): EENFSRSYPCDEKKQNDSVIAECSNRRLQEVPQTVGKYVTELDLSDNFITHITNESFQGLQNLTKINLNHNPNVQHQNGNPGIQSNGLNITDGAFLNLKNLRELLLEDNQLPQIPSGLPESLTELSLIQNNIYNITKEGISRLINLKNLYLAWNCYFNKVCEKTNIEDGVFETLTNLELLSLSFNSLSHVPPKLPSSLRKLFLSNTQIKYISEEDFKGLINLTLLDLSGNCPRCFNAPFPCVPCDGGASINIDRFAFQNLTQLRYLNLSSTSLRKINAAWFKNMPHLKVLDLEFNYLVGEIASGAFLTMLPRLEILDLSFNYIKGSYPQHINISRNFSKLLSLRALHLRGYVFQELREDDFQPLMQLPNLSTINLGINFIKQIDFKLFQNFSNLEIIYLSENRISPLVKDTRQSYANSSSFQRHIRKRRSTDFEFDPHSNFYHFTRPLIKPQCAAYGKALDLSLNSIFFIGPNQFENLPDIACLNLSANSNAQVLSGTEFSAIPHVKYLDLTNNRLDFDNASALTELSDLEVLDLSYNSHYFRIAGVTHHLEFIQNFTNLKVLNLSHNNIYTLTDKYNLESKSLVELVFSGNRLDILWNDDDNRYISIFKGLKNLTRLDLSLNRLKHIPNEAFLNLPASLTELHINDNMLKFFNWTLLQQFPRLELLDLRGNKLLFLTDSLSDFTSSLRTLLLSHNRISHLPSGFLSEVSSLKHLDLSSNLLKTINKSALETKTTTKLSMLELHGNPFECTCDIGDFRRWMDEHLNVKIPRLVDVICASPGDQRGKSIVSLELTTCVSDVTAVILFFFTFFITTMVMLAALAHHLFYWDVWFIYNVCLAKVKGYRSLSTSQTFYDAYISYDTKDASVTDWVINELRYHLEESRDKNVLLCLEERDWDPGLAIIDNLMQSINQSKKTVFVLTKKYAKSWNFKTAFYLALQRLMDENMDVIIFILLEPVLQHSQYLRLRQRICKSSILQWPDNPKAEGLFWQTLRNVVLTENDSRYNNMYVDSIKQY
Assay: HEK293-Blue-hTLR-8 cells assay (SEAP reporter, R848 stimulation)
Details: HEK293-Blue-hTLR8 cells, R848 ligand, 20 hrs incubation
pIC50: −log10 of the molar value.
Outcome: Fulfilled for pIC50 of at least 7; Not fulfilled for anything lower.

>  <compound>
C[C@@H]1CN(c2ccc(C#N)n3nccc23)C[C@H](CN2C3CCC2CNC3)O1

>  <discrete label>
Fulfilled

$$$$
>  <compound>
C[C@@H]1CN(c2ccc(C#N)n3nccc23)C[C@H](CNC2CCN(C)CC2)O1

>  <discrete label>
Not fulfilled

$$$$
>  <compound>
C[C@@H]1CN(c2ccc(C#N)n3ncc(F)c23)C[C@H](CN2CCC3(CCCNC3)C2)O1 (stereo partly drawn)

>  <discrete label>
Fulfilled

$$$$
>  <compound>
C[C@@H]1CN(c2ccc(C#N)n3nccc23)C[C@H](CN2CCC3(CCCN3)CC2)O1

>  <discrete label>
Fulfilled

$$$$
>  <compound>
C[C@@H]1CN(c2ccc(C#N)n3nccc23)C[C@H](CN2C3CCC2CC(N)C3)O1 (stereo partly drawn)

>  <discrete label>
Fulfilled

$$$$
>  <compound>
C[C@@H]1CN(c2ccc(C#N)n3nccc23)C[C@H](CN2CCOC3(CCNCC3)C2)O1

>  <discrete label>
Fulfilled

$$$$

* * *

Target: human TLR7 (Homo sapiens, UniProt Q9NYK1)
Sequence (Q9NYK1 27-1049): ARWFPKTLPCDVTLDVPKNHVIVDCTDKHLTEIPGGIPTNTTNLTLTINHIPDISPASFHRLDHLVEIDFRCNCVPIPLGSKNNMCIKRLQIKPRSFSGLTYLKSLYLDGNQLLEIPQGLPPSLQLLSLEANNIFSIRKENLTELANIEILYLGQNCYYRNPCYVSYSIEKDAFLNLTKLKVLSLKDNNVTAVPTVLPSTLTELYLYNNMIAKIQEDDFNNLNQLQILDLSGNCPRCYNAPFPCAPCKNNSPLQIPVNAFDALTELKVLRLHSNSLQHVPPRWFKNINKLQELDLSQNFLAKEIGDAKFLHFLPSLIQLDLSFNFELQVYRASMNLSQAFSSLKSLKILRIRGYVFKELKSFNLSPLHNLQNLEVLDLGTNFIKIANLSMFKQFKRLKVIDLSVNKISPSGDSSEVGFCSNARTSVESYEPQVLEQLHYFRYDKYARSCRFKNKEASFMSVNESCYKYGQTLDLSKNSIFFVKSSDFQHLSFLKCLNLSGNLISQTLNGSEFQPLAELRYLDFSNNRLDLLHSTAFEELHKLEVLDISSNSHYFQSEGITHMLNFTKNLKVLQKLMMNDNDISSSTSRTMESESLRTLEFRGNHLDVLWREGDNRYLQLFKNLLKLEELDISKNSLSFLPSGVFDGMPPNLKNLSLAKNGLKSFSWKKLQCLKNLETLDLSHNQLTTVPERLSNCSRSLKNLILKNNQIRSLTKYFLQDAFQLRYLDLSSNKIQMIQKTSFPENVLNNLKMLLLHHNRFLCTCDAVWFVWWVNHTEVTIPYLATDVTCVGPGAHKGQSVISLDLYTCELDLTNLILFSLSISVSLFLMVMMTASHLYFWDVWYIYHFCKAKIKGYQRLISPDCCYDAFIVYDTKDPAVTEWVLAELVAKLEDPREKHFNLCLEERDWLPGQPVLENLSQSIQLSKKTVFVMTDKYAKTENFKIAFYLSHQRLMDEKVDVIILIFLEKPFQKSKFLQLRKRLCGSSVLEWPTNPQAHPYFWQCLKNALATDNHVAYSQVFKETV
Experiment: HEK293-Blue-hTLR-7 cells assay (SEAP reporter, R848 stimulation)
Details: HEK293-Blue-hTLR7 cells, R848 ligand, 20 hrs incubation
Experimental: A stable HEK293-Blue-hTLR-7 cell line was purchased from InvivoGen (Cat. #: hkb-htlr7, San Diego, Calif., USA). These cells were originally designed for studying the stimulation of human TLR7 by monitoring the activation of NF-κB. […] The cell culture supernatant SEAP reporter activity was determined using QUANTI-Blue™ kit (Cat. #: rep-qb1, Invivogen, San Diego, Ca, USA) at a wavelength of 640 nm, a detection medium that turns purple or blue in the presence of alkaline phosphatase. […]
pIC50: −log10 of the molar value.
compounds and their reported pIC50
parameter measured: pIC50

>  <compound>
C[C@@H]1CN(c2ccc(C#N)n3nccc23)C[C@H](CN2CCCC3(CCCNC3)C2)O1 (stereo partly drawn)

>  <tested system>
human TLR7 (Homo sapiens, UniProt Q9NYK1)

>  <parameter measured>
pIC50

>  <quantitative result>
6.74

$$$$
>  <compound>
C[C@@H]1CN(c2ccc(C#N)n3nccc23)C[C@H](CN2CCC(N)C(F)(F)C2)O1 (stereo partly drawn)

>  <tested system>
human TLR7 (Homo sapiens, UniProt Q9NYK1)

>  <parameter measured>
pIC50

>  <quantitative result>
7.06

$$$$
>  <compound>
CC1CNCCN1C[C@H]1CN(c2ccc(C#N)n3nccc23)C[C@@H](C)O1 (single isomer, unassigned) [Example 50A]

>  <tested system>
human TLR7 (Homo sapiens, UniProt Q9NYK1)

>  <parameter measured>
pIC50

>  <quantitative result>
6.64

$$$$
>  <compound>
C[C@@H]1CN(c2ccc(C#N)n3nccc23)C[C@H](CN2CC3(CC(N)C3)C2)O1

>  <tested system>
human TLR7 (Homo sapiens, UniProt Q9NYK1)

>  <parameter measured>
pIC50

>  <quantitative result>
6.80

$$$$
>  <compound>
C[C@@H]1CN(c2ccc(C#N)n3nccc23)C[C@H](CN2CCN[C@H](c3ccccc3)C2)O1

>  <tested system>
human TLR7 (Homo sapiens, UniProt Q9NYK1)

>  <parameter measured>
pIC50

>  <quantitative result>
6.92

$$$$
>  <compound>
C[C@@H]1CN(c2ccc(C#N)n3nccc23)C[C@H](CN2CC3CNCC3C2)O1 (stereo partly drawn)

>  <tested system>
human TLR7 (Homo sapiens, UniProt Q9NYK1)

>  <parameter measured>
pIC50

>  <quantitative result>
7.00

$$$$
>  <compound>
C[C@@H]1CN(c2ccc(C#N)n3nccc23)C[C@H](CN2CCC3(CCCNC3)CC2)O1

>  <tested system>
human TLR7 (Homo sapiens, UniProt Q9NYK1)

>  <parameter measured>
pIC50

>  <quantitative result>
6.89

$$$$
>  <compound>
C[C@@H]1CN(c2ccc(C#N)n3nccc23)C[C@H](CN2CCC(C)(N)CC2)O1

>  <tested system>
human TLR7 (Homo sapiens, UniProt Q9NYK1)

>  <parameter measured>
pIC50

>  <quantitative result>
7.12

$$$$
>  <compound>
C[C@@H]1CN(c2ccc(C#N)n3nccc23)C[C@H](CN2CCC23CNC3)O1

>  <tested system>
human TLR7 (Homo sapiens, UniProt Q9NYK1)

>  <parameter measured>
pIC50

>  <quantitative result>
6.27

$$$$
>  <compound>
C[C@@H]1CN(c2ccc(C#N)n3ncc(F)c23)C[C@H](CN2CCC3(CCCNC3)C2)O1 (stereo partly drawn)

>  <tested system>
human TLR7 (Homo sapiens, UniProt Q9NYK1)

>  <parameter measured>
pIC50

>  <quantitative result>
6.89

$$$$
>  <compound>
C[C@@H]1CN(c2ccc(C#N)n3nccc23)C[C@H](CN2CC3(CCCNC3)C2)O1

>  <tested system>
human TLR7 (Homo sapiens, UniProt Q9NYK1)

>  <parameter measured>
pIC50

>  <quantitative result>
7.08

$$$$
>  <compound>
C[C@@H]1CN(c2ccc(C#N)n3nccc23)C[C@H](CN2CC3CCNCC3C2)O1 (stereo partly drawn)

>  <tested system>
human TLR7 (Homo sapiens, UniProt Q9NYK1)

>  <parameter measured>
pIC50

>  <quantitative result>
6.74

$$$$
>  <compound>
C[C@@H]1CN(c2ccc(C#N)n3ncc(F)c23)C[C@H](CN2CCCC3(CCNC3)C2)O1 (stereo partly drawn)

>  <tested system>
human TLR7 (Homo sapiens, UniProt Q9NYK1)

>  <parameter measured>
pIC50

>  <quantitative result>
6.64

$$$$
>  <compound>
CC1CN(C[C@H]2CN(c3ccc(C#N)n4nccc34)C[C@@H](C)O2)CCN1 (stereo partly drawn)

>  <tested system>
human TLR7 (Homo sapiens, UniProt Q9NYK1)

>  <parameter measured>
pIC50

>  <quantitative result>
7.36

$$$$
>  <compound>
C[C@@H]1CN(c2ccc(C#N)n3nccc23)C[C@H](CN2CCC(N3CCCCC3)CC2)O1

>  <tested system>
human TLR7 (Homo sapiens, UniProt Q9NYK1)

>  <parameter measured>
pIC50

>  <quantitative result>
7.00

$$$$
>  <compound>
C[C@@H]1CN(c2ccc(C#N)n3nccc23)C[C@H](CN2CCC(CN)CC2)O1

>  <tested system>
human TLR7 (Homo sapiens, UniProt Q9NYK1)

>  <parameter measured>
pIC50

>  <quantitative result>
6.62

$$$$
>  <compound>
C[C@@H]1CN(c2ccc(C#N)n3nccc23)C[C@H](CN2CCC3(CCCCN3)C2)O1 (stereo partly drawn)

>  <tested system>
human TLR7 (Homo sapiens, UniProt Q9NYK1)

>  <parameter measured>
pIC50

>  <quantitative result>
7.01

$$$$
>  <compound>
C[C@@H]1CN(c2ccc(C#N)n3nccc23)C[C@H](CN2CCC3NCCC3C2)O1 (stereo partly drawn)

>  <tested system>
human TLR7 (Homo sapiens, UniProt Q9NYK1)

>  <parameter measured>
pIC50

>  <quantitative result>
7.11

$$$$
>  <compound>
C[C@@H]1CN(c2ccc(C#N)n3nccc23)C[C@H](CN2CCC(N3CCNCC3)CC2)O1

>  <tested system>
human TLR7 (Homo sapiens, UniProt Q9NYK1)

>  <parameter measured>
pIC50

>  <quantitative result>
6.70

$$$$
>  <compound>
C[C@@H]1CN(c2ccc(C#N)n3nccc23)C[C@H](CN2CCC3(CCNC3)C2=O)O1 (stereo partly drawn)

>  <tested system>
human TLR7 (Homo sapiens, UniProt Q9NYK1)

>  <parameter measured>
pIC50

>  <quantitative result>
7.01

$$$$
>  <compound>
C[C@@H]1CN(c2ccc(C#N)n3nccc23)C[C@H](CN2CCNCC2Cc2ccccc2)O1 (stereo partly drawn)

>  <tested system>
human TLR7 (Homo sapiens, UniProt Q9NYK1)

>  <parameter measured>
pIC50

>  <quantitative result>
8.15

$$$$
>  <compound>
C[C@@H]1CN(c2ccc(C#N)n3nccc23)C[C@H](CN2CCC3(CCCNC3)C2)O1 (stereo partly drawn)

>  <tested system>
human TLR7 (Homo sapiens, UniProt Q9NYK1)

>  <parameter measured>
pIC50

>  <quantitative result>
6.96

$$$$
>  <compound>
C[C@@H]1CN(c2ccc(C#N)n3nccc23)C[C@H](CN2CCC(N)CC2)O1

>  <tested system>
human TLR7 (Homo sapiens, UniProt Q9NYK1)

>  <parameter measured>
pIC50

>  <quantitative result>
7.05

$$$$
>  <compound>
C[C@@H]1CN(c2ccc(C#N)n3nccc23)C[C@H](CN2C3CCC2CC(N)C3)O1 (stereo partly drawn)

>  <tested system>
human TLR7 (Homo sapiens, UniProt Q9NYK1)

>  <parameter measured>
pIC50

>  <quantitative result>
6.72

$$$$
>  <compound>
C[C@@H]1CN(c2ccc(C#N)n3nccc23)C[C@H](CN2CCC3(CCNCC3)C2)O1

>  <tested system>
human TLR7 (Homo sapiens, UniProt Q9NYK1)

>  <parameter measured>
pIC50

>  <quantitative result>
6.70

$$$$
>  <compound>
C[C@@H]1CN(c2ccc(C#N)n3nccc23)C[C@H](CN2CCC(N3CCCCCC3)CC2)O1

>  <tested system>
human TLR7 (Homo sapiens, UniProt Q9NYK1)

>  <parameter measured>
pIC50

>  <quantitative result>
6.74

$$$$
>  <compound>
C[C@@H]1CN(c2ccc(C#N)n3nccc23)C[C@H](CN2CCC3NCC3C2)O1 (stereo partly drawn)

>  <tested system>
human TLR7 (Homo sapiens, UniProt Q9NYK1)

>  <parameter measured>
pIC50

>  <quantitative result>
6.64

$$$$
>  <compound>
C[C@@H]1CN(c2ccc(C#N)n3nccc23)C[C@H](CN2C3CCCC2CC(N)C3)O1 (stereo partly drawn) [Example 65]

>  <tested system>
human TLR7 (Homo sapiens, UniProt Q9NYK1)

>  <parameter measured>
pIC50

>  <quantitative result>
6.34

$$$$
>  <compound>
C[C@@H]1CN(c2ccc(C#N)n3nccc23)C[C@H](CN2CCC3(CC2)CNCCO3)O1

>  <tested system>
human TLR7 (Homo sapiens, UniProt Q9NYK1)

>  <parameter measured>
pIC50

>  <quantitative result>
7.00

$$$$
>  <compound>
C[C@@H]1CN(c2ccc(C#N)n3nccc23)C[C@H](CN2CCN(C)CC2)O1

>  <tested system>
human TLR7 (Homo sapiens, UniProt Q9NYK1)

>  <parameter measured>
pIC50

>  <quantitative result>
7.11

$$$$
>  <compound>
C[C@@H]1CN(c2ccc(C#N)n3nccc23)C[C@H](CN2CC(N)C(F)(F)C2)O1 (stereo partly drawn)

>  <tested system>
human TLR7 (Homo sapiens, UniProt Q9NYK1)

>  <parameter measured>
pIC50

>  <quantitative result>
6.08

$$$$
>  <compound>
C[C@@H]1CN(c2ccc(C#N)n3nccc23)C[C@H](CN2CC3(CCNCC3)C2)O1

>  <tested system>
human TLR7 (Homo sapiens, UniProt Q9NYK1)

>  <parameter measured>
pIC50

>  <quantitative result>
7.00

$$$$
>  <compound>
C[C@@H]1CN(c2ccc(C#N)n3nccc23)C[C@H](CN2CCOC3(CCNCC3)C2)O1

>  <tested system>
human TLR7 (Homo sapiens, UniProt Q9NYK1)

>  <parameter measured>
pIC50

>  <quantitative result>
6.35

$$$$
